- TEST TARGET: T1, human Ror2 (human, UniProt Q01974 34-403, limits assumed)
- T1 construct: also called hROR2; receptor tyrosine kinase-like orphan receptor 2
- T1 sequence (Q01974 34-403 limits assumed): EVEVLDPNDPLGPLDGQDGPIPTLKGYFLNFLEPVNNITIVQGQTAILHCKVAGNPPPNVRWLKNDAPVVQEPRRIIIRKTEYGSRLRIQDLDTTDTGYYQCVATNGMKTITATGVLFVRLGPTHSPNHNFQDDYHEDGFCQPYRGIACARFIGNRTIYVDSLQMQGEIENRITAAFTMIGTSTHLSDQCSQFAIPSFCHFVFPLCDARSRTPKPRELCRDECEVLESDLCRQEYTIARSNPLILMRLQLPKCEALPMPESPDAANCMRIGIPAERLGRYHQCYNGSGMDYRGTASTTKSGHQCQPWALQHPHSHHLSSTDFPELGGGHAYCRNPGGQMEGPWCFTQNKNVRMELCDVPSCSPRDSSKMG
- MEASUREMENT PROTOCOL: ELISA, human Ror2, pH 6.0; note: unit not given here
MEASURED PROPERTY: Affinity ELISA pH 6.0
Please give only the number in your answer, with no unit.

BINDER	Affinity ELISA pH 6.0
LC-G049C (antibody, V domains shown) VH: EVQLQQSGPELVKPGASVKISCKTSGYTFTEYTMHWMKQSHRKSLEWIGGINTNNGGTGYNQKFKGKATLTVDKSSSTAYMELRSLTSEDSAVYFCARGSLYSYGNSYFDYWGQGTLVTVSS VL: QIVLTQSPAIMSASPGEKVTITCSATSSVSYMHWFQQKPGTSPKLWIYCTSNLASGVPARFSGSGSGTSYSLTISRMEAEDAATYYCQQRSSYPFTFGQGTKVEIK	0.468

Task: What value of measured Affinity ELISA pH 6.0 is listed for LC-F097E (antibody, V domains shown) VH: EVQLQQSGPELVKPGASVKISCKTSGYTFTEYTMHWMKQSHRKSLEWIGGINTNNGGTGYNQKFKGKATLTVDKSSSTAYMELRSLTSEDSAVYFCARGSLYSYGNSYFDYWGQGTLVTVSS VL: QIVLTQSPAIMSASPGEKVTITCSATSSVSYMHWFQQKPGTSPKLWIYGTSNLASGVPARFSGSGSGTSYSLTISRMEAEDAATYYCQQRSSYPFTEGQGTKVEIK ?
Output: 0.489
